Biological target: hHER3 full length (human, UniProt P21860 20-1342)
Assay: cell-based or functional assay
quantity.name: IC50 pHER3 blocking, MCF7 (M)

{"binder": "HER3MS00127 (VHH) VHH: DVQLVESGGGLVQPGGSLRLSCAASGSIFRINAMAWYRQAPGKQRELVAEITAGGSTNYADSVKGRFTISRDNSWNTLYLQMNSLRPEDTAVYYCNLDHYTTWDRRSAYWGQGTLVTVSS", "value": "3.88e-08"}
{"binder": "HER3MS00128 (VHH) VHH: DVQLVESGGGLVQPGGSLRLSCAASGSIFRINAMAWYRQAPGKQRELVAEITAGGSTNYADSVKGRFTISRDNSWNTLYLQMNSLRAEDTAVYYCNLDHYTTWDRRSAYWGQGTLVTVSS", "value": "4.05e-08"}
{"binder": "34C07 (VHH, c-myc, His6-tagged form as expressed; also called 34C7; HER3MS34C07) VHH: EVQLVESGGGLVQPGGSLGLSCVASGSIFRINAMAWYRQAPGKQRELVAEITAGGSTNYADSVKGRFTISVDNAWNTLYLQMNSLKVEDTAVYYCNLDHYTTWDRRSAYWGQGTQVTVSS", "value": "2.49e-08"}
{"binder": "HER3MS00123 (VHH) VHH: EVQLVESGGGLVQPGGSLRLSCAASGSIFRINAMAWYRQAPGKQRELVAEITAGGSTNYADSVKGRFTISRDNSWNTLYLQMNSLRPEDTAVYYCNLDHYTTWDRRSAYWGQGTLVTVSS", "value": "3.09e-08"}
{"binder": "HER3MS00124 (VHH) VHH: EVQLVESGGGLVQPGGSLRLSCAASGSIFRINAMAWYRQAPGKQRELVAEITAGGSTNYADSVKGRFTISRDNSWNTLYLQMNSLRAEDTAVYYCNLDHYTTWDRRSAYWGQGTLVTVSS", "value": "3.05e-08"}

Where these numbers come from: patent US20130136748A1
